The reported measurements were obtained from ChEMBL document CHEMBL5291721.

Values of AC50 reported for Alpha-1A adrenergic receptor (Homo sapiens) appear below.
measured.endpoint: AC50

CN1CCN(CC/C=C2/c3ccccc3Sc3ccc(S(=O)(=O)N(C)C)cc32)CC1 ... 0.0244 µM
CC(C)(C)c1cc(C(C)(C)C)c(NC(=O)c2c[nH]c3ccccc3c2=O)cc1O ... > 10 µM
NCC[C@H](O)C(=O)N[C@@H]1C[C@H](N)[C@@H](O[C@H]2O[C@H](CN)[C@@H](O)[C@H](O)[C@H]2O)[C@H](O)[C@H]1O[C@H]1O[C@H](CO)[C@@H](O)[C@H](N)[C@H]1O ... > 10 µM

====

Listed here are compounds together with their documented AC50.
Target: UniProtKB P08172
Sequence (P08172 whole entry): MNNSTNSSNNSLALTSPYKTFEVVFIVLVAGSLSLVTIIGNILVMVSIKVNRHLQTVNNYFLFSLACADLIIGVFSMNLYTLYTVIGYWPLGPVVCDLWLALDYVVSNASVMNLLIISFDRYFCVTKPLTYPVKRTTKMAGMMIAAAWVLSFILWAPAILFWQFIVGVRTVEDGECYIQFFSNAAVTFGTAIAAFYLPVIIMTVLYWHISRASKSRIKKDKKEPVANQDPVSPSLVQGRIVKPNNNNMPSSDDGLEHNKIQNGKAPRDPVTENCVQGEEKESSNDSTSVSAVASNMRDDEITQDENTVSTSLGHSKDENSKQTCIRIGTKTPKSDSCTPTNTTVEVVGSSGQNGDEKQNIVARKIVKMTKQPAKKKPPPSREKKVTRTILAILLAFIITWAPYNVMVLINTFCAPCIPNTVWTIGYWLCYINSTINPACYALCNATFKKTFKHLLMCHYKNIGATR
Assay type: functional, cell-based
measured.endpoint: AC50

CN(C)CCc1c[nH]c2ccc(C[C@H]3COC(=O)N3)cc12 ... > 30 µM
COc1ccccc1OCC(O)CN1CCN(CC(=O)Nc2c(C)cccc2C)CC1 (centres undefined) ... > 30 µM
CC[C@H]1CN2CCc3cc(OC)c(OC)cc3[C@@H]2C[C@@H]1C[C@H]1NCCc2cc(OC)c(OC)cc21 ... > 30 µM
C=CCc1ccccc1OCC(O)CNC(C)C (centres undefined) ... > 30 µM
O=C1Nc2ccc(Cl)cc2[C@@](C#CC2CC2)(C(F)(F)F)O1 ... > 10 µM
CC(C)C(=O)c1c(C(C)C)nn2ccccc12 ... > 30 µM
C#C[C@]1(O)CC[C@H]2[C@@H]3CCc4cc(OC5CCCC5)ccc4[C@H]3CC[C@@]21C ... > 10 µM
NC(=O)OCC(COC(N)=O)c1ccccc1 [FELBAMATE] ... > 10 µM
NCC(=O)CCC(=O)O ... > 30 µM

====

Listed here are molecules together with their documented AC50.
Molecular target: Thromboxane A2 receptor (Homo sapiens, UniProt P21731); also: assay procedure not described here
Sequence (P21731 whole entry): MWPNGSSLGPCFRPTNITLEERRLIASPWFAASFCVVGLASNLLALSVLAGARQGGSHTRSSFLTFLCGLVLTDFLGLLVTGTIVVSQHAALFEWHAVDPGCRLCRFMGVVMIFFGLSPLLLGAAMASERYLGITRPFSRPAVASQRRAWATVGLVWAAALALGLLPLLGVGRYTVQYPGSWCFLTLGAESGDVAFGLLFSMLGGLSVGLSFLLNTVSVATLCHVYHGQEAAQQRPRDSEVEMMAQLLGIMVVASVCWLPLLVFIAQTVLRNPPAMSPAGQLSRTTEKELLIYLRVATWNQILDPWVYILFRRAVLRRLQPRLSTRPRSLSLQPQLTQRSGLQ
Format: functional, cell-based
measured.endpoint: AC50

CCC(CC)(CC(=O)Nc1cccc(/C=C/c2nc(C3CCC3)cs2)c1)C(=O)O ... > 3 µM
CC(C)(S)[C@@H](N)C(=O)O ... > 30 µM
CC1=C(/C=C/C(C)=C/C=C/C(C)=C/C=C/C=C(C)/C=C/C=C(C)/C=C/C2=C(C)CCCC2(C)C)C(C)(C)CCC1 ... > 30 µM
CC[C@H]1CN2CCc3cc(OC)c(OC)cc3[C@@H]2C[C@@H]1C[C@H]1NCCc2cc(OC)c(OC)cc21 ... > 30 µM
CCCC1O[C@@H]2C[C@H]3[C@@H]4CCC5=CC(=O)C=C[C@]5(C)[C@H]4[C@@H](O)C[C@]3(C)[C@]2(C(=O)CO)O1 (stereo partly specified) [BUDESONIDE] ... > 30 µM
Nc1ccc(S(=O)(=O)c2cnc(N)s2)cc1 ... > 30 µM
CO[C@H]1C[C@@H]2CC[C@@H](C)[C@@](O)(O2)C(=O)C(=O)N2CCCC[C@H]2C(=O)O[C@H]([C@H](C)C[C@@H]2CC[C@@H](O)[C@H](OC)C2)CC(=O)[C@H](C)/C=C(\C)[C@@H](O)[C@@H](OC)C(=O)[C@H](C)C[C@H](C)/C=C/C=C/C=C/1C ... > 30 µM
C[S+](CC[C@H](N)C(=O)[O-])C[C@H]1O[C@@H](n2cnc3c(N)ncnc32)[C@H](O)[C@@H]1O (stereo partly specified) ... > 30 µM
O=c1[nH]c(=O)n([C@H]2C[C@H](O)[C@@H](CO)O2)cc1F ... > 30 µM
COc1ccccc1N1CCN(CC(O)COc2cccc3ccccc23)CC1 (stereo unspecified) ... > 3 µM
CC(=O)N[C@@H]1[C@@H](O)[C@H](O)[C@@H](CO)O[C@H]1O ... > 30 µM
CC(=O)Nc1ccc(O)cc1 ... > 30 µM
COC(c1ccccc1)(c1ccccc1)[C@H](Oc1nc(C)cc(C)n1)C(=O)O ... > 30 µM
CC(C)C[C@H]1C(=O)N2CCC[C@H]2[C@]2(O)O[C@](NC(=O)[C@@H]3C=C4c5cccc6[nH]c(Br)c(c56)C[C@H]4N(C)C3)(C(C)C)C(=O)N12 ... > 3 µM
O=C(O)c1ccccc1C(=O)Nc1ccc(S(=O)(=O)Nc2nccs2)cc1 ... > 30 µM
CC(C)(C)CC(C)(C)c1ccc(O)c(Cc2ccc(Cl)cc2Cl)c1 ... > 30 µM
